Collected inhibition at 1 µM values appear next to each entry.
# study.target: human recombinant dopamine D2L receptor (Homo sapiens)
# Construct: expressed in transfected cells; host or cells: CHO cells
# Sequence (P14416 whole entry): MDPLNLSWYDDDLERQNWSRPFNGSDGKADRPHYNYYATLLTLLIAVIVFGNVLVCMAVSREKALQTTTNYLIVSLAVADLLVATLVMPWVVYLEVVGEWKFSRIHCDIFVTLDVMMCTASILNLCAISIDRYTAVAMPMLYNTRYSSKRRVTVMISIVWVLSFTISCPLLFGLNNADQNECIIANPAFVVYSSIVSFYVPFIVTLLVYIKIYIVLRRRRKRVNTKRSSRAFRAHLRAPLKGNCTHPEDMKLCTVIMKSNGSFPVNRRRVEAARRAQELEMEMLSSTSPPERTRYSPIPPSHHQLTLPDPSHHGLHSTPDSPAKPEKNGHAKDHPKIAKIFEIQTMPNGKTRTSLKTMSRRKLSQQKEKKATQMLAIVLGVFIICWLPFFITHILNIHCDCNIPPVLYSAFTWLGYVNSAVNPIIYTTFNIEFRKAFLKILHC
# experiment.description: Dopamine D2L radioligand binding ([3H]Spiperone)
# test.context: compound concentration 1 μM; read-out: Percentage inhibition of ligand binding to D2L receptor

compound | study.target | inhibition at 1 µM (%)
C/C(=C\n1c2c(c3cc(C)ccc31)CCN(C)C2C)c1ccccc1F (stereo not shown) | human recombinant dopamine D2L receptor (Homo sapiens) | 21
Cc1ccc2c(c1)c1c(n2/C=C/c2ccccc2)CN(C)CC1 | human recombinant dopamine D2L receptor (Homo sapiens) | 47
C/C(=C\n1c2c(c3cc(Cl)ccc31)CCN(C)C2)c1ccc(F)cc1 | human recombinant dopamine D2L receptor (Homo sapiens) | 39
C/C(=C\n1c2c(c3cc(C)ccc31)CCN(C)C2)c1ccc(F)cc1 | human recombinant dopamine D2L receptor (Homo sapiens) | 44
